Attribution: patent US8415333B2

# Test system: human bronchiols
# method_summary: Test Procedure B: remaining contraction of LTD4-contracted human bronchus preparation under sequential test item concentrations
# Format: cell-based
# test_conditions: test item 10 μM for 1 h in 10 nM LTD4 PSS, sequential
measure: % RC 10 μM (%)
Lab book: enter the figure in %, no units written.

Cc1nc2ncccc2cc1C(=O)NCc1ccc(N2CCN(C)CC2)c(C(F)(F)F)c1: 17

*Q* Observed % RC 10 μM on human bronchiols for Cc1nc2ncccc2cc1C(=O)OCc1csc(-c2ccccc2)n1 , please.
*A* 27

*Q* Entry to check: Cc1ccc2cc(C(=O)NCc3ccc(C(C)(C)C)cc3)c(C)nc2n1
*A* 1

*Q* Then this molecule: Cc1nc2ncccc2cc1C(=O)NCc1csc(-c2ccccc2)n1
*A* 4

----------
Parameter: % RC 0.1 μM. Scope: all listed entries.
# System: human bronchiols
# method_summary: Test Procedure B: remaining contraction of LTD4-contracted human bronchus preparation under sequential test item concentrations
# Type: cell-based
# test_conditions: test item 0.1 μM for 1 h in 10 nM LTD4 PSS
Numeric answer only, unit % assumed.

Cc1ccc2cc(C(=O)NCc3ccc(C(C)(C)C)cc3)c(C)nc2n1: 73
Cc1nc2ncccc2cc1C(=O)OCc1csc(-c2ccccc2)n1: 72
Cc1nc2ncccc2cc1C(=O)NCc1csc(-c2ccccc2)n1: 85

Switching to the query record.
*Q* I have this compound here, Cc1nc2ncccc2cc1C(=O)NCc1ccc(N2CCN(C)CC2)c(C(F)(F)F)c1 , and I need its recorded % RC 0.1 μM.
*A* 92

----------
# Test system: human bronchiols
# method_summary: Test Procedure A: remaining contraction of human bronchus preparation on LTD4 challenge after 1 h pre-treatment with test item
# Type: cell-based
# test_conditions: test item 1 μM pre-treatment, 10 nM Leukotriene D4
measure: % RC 1 μM (%)
Expressed in %, but write only the number.

Cc1nc2ncccc2cc1C(=O)NCc1ccc(Cl)c(C(F)(F)F)c1 [Example 17]: 67
Cc1nc2ncccc2cc1C(=O)NCc1ccc(C(F)(F)F)cc1 [Example 2]: 77
Cc1nc2ncccc2cc1C(=O)NCc1cccc(C(F)(F)F)c1 [Example 14]: 76

The record that follows has no % RC 1 μM shown yet.
*Q* What value of measured % RC 1 μM is listed for Cc1nc2ncccc2cc1C(=O)NCc1ccc(-c2ccccc2)cc1 [Example 19] ?
*A* 41
